test: acute toxicity, death rate up to 24 hours after intravenous injection
applied_conditions: mouse, in vivo, ddY mice (male, 6 weeks old), read-out: 50% lethal dosage LD50 of acute toxicity
metric_name: LD50 at 24 h (mg/kg)
Give bare numbers, in mg/kg.

q: Quick check: LD50 at 24 h of O=C(CCCN1CCN(c2ccc(Cc3ccc(F)cc3)cc2)CC1)N1CCCOc2ccccc21 ?
a: 46.5

###

experimental_target: Dopamine D2 receptor (Rattus norvegicus)
Construct: membrane fraction prepared from the striatum of Wister male rats; from tissue; host or cells: striatum of male Wistar rats (6 weeks old), membrane fraction
Sequence (P61169 whole entry): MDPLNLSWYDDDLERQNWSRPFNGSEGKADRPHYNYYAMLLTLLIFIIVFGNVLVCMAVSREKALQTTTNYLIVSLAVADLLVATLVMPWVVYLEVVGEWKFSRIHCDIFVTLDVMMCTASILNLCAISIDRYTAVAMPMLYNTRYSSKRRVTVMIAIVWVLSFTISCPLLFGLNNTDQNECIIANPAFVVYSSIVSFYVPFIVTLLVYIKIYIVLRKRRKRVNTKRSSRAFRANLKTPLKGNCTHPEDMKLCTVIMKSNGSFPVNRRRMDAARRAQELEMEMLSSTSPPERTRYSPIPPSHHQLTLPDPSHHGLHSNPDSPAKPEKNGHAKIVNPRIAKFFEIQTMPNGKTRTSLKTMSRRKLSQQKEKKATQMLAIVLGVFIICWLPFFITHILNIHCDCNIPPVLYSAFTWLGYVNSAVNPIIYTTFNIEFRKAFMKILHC
test: Dopamine D2 Receptor Blocking Effect ([3H] raclopride binding, striatum membrane fraction)
Design: species or system Wister male rats
applied_conditions: 1.0 nM [3H] raclopride, 25° C., one hour
Please respond with reported IC50 for every item in the list.
Numbers only, in nM.

INSERT INTO measurements (test_smiles, value_units, reported_measurement) VALUES
  ('O=C(CCCN1CCN(c2ccc(Cc3ccc(F)cc3)cc2)CC1)Nc1ccccc1Cc1ccccc1', 'nM', 7000);

// switching to the query compound
q: Quick check: IC50 of O=C(CCCN1CCN(c2ccc(Cc3ccc(F)cc3)cc2)CC1)N1CCCOc2ccccc21 ?
a: 1260
